Values from patent EP2141163A1

system: DU145; experiment: Proliferation assay (crystal violet staining), DU145; format: cell-based, human; conditions: Homo sapiens, DU-145, 96 h, tumour cell proliferation, 4 days incubation, read-out: Inhibition IC50 [M] (DU145)

- Molecule smiles: "CCn1c(=O)c(=CNc2ccc3c(CN4CCCCC4)cn(C)c3c2)s/c1=C(/C#N)C(=O)NCC#N"
  Uom: "M"
  IC50: "1.4e-07"
- Molecule smiles: "CCCN1CCC(c2cn(CC)c3ccc(NC=c4sc(=C(C#N)C(=O)NCC#N)n(CC)c4=O)cc23)CC1"
  Uom: "M"
  IC50: "5.4e-08"
- Molecule smiles: "CCn1c(=C(C#N)C(=O)NCC#N)sc(=CNc2ccc3c(c2)c(C2CCN(C4CC4)CC2)cn3C)c1=O"
  Uom: "M"
  IC50: "3.7e-08"
- Molecule smiles: "CCn1c(=C(C#N)C(=O)NCC#N)sc(=CNc2ccc3ccn(C4CCN(C)CC4)c3c2)c1=O"
  Uom: "M"
  IC50: "2.9e-08"
- Molecule smiles: "CCn1c(=C(C#N)C(=O)NCC(F)(F)F)sc(=CNc2ccc3c(c2)N(C2CCN(C)CC2)CC3)c1=O"
  Uom: "M"
  IC50: "1.3e-07"

###

system: DU145; assay: Proliferation assay (crystal violet staining), DU145; format: cell-based, human; conditions: Homo sapiens, DU-145, 96 h, tumour cell proliferation, 4 days incubation, read-out: Inhibition IC50 [M] (DU145)
Property: IC50 (M)

- Compound: "CCn1c(=C(C#N)C(=O)NCC(F)(F)F)sc(=CNc2ccc3ccn(CCN4CCCC4)c3c2)c1=O [B132]"
  Property: "IC50"
  Uom: "M"
  Experimental value: "2.2e-07"
- Compound: "CCn1c(=C(C#N)C(=O)NCC(F)(F)F)sc(=CNc2ccc3c(c2)c(CCN(C)C)cn3C)c1=O [B39]"
  Property: "IC50"
  Uom: "M"
  Experimental value: "1.8e-07"
- Compound: "CCn1c(=O)c(=CNc2ccc3ccn([C@H]4CCCC[C@H]4N(C)C)c3c2)s/c1=C(/C#N)C(=O)NCC#N (relative stereo) [B193]"
  Property: "IC50"
  Uom: "M"
  Experimental value: "1.8e-07"
- Compound: "CCn1c(=C(C#N)C(=O)NCC(F)(F)F)sc(=CNc2ccc3ccn(C4CCN(CC(N)=O)CC4)c3c2)c1=O [B71]"
  Property: "IC50"
  Uom: "M"
  Experimental value: "1.2e-07"
- Compound: "CCn1c(=C(C#N)C(=O)NCC(F)(F)F)sc(=CNc2ccc3ccn(C4CCOCC4)c3c2)c1=O [B59]"
  Property: "IC50"
  Uom: "M"
  Experimental value: "1.7e-07"
- Compound: "CCn1c(=O)c(=CNc2ccc3c(Cl)cn([C@H]4CC[C@H](N(C)C)CC4)c3c2)s/c1=C(/C#N)C(=O)NCC#N [B165]"
  Property: "IC50"
  Uom: "M"
  Experimental value: "1.8e-07"
- Compound: "CCn1c(=O)c(=CNc2ccc3c(C4CCN(C)CC4)cn(C)c3c2)s/c1=C(/C#N)C(=O)NCC#N [B130]"
  Property: "IC50"
  Uom: "M"
  Experimental value: "8.4e-08"

###

System: NCI-H460
Test: Proliferation assay (crystal violet staining), NCI-H460
Format: cell-based, human
Settings: Homo sapiens, comparison with prior art (Tabelle 4), read-out: Inhibition IC50 [M] (NCI-H460)
Text: Kultivierte humane Tumorzellen (MCF7, […] menschliche Mammakarzinomazellen, bezogen von ATCC HTB22; NCI-H460, menschliche nicht kleinzellige Lungenkarzinomazellen, ATCC HTB-177; DU 145, hormonunabhängige menschliche Prostatakarzinomazellen, ATCC HTB-81; HeLa-MaTu, humane Cervixkarzinomazellen, bezogen von EPO-GmbH, Berlin,) werden in einer Dichte von 5000 (MCF7, DU145) bzw. […]

- Molecule: "CCn1c(=C(C#N)C(=O)NCC(F)(F)F)sc(=CNc2cccc(CCN3CCCC3)c2)c1=O [Beispiel 30 aus PCT/EP2005/013418, reference compound]"
  IC50: "9e-07 M"

###

target: PLK-1 (Homo sapiens); construct: Fusionsprotein bestehend aus GST und Plk (Kinase Domäne 33-345; MW 36 kDa, conc 0,8 µg/µl); GST; made in house; host or cells: Hi5 insect cells; test: PLK-1 enzyme assay at 10 mM ATP (indirect HTRF assay); format: biochemical; conditions: read-out: Inhibition PLK-1 IC50 [M] (10 mM ATP)
Property: IC50 (M)

- Molecule: "CCn1c(=C(C#N)C(=O)NCC#N)sc(=CNc2ccc3cnn(C4CCN(C(C)C)CC4)c3c2)c1=O [B44]"
  Experimental value: "1.1e-09"
- Molecule: "CCn1c(=C(C#N)C(=O)NCC#N)sc(=CNc2ccc3ccn(C4CCN(C)CC4)c3c2)c1=O [B04]"
  Experimental value: "2.9e-09"
- Molecule: "CCn1c(=C(C#N)C(=O)NCC(F)(F)F)sc(=CNc2ccc3c(c2)N(C2CCN(C)CC2)CC3)c1=O [B01]"
  Experimental value: "5.7e-09"
- Molecule: "CCn1c(=C(C#N)C(=O)NC(C)(C)CO)sc(=CNc2ccc3ccn(C4CCN(C)CC4)c3c2)c1=O [B06]"
  Experimental value: "1e-08"
- Molecule: "CCN1CCCC1Cn1ccc2ccc(NC=c3sc(=C(C#N)C(=O)NCC(F)(F)F)n(CC)c3=O)cc21 (stereo not shown) [B58]"
  Experimental value: "2e-08"
- Molecule: "CCn1c(=C(C#N)C(=O)NCC(F)(F)F)sc(=CNc2ccc3ccn(C4CCN(CC(N)=O)CC4)c3c2)c1=O [B71]"
  Experimental value: "8.2e-09"
- Molecule: "CCn1c(=O)c(=CNc2ccc3ccn([C@H]4CCCC[C@H]4N(C)C)c3c2)s/c1=C(/C#N)C(=O)NCC#N (relative stereo) [B193]"
  Experimental value: "1.4e-08"

###

Below, each entry is listed alongside its reported IC50.
system: DU145; experiment: Proliferation assay (crystal violet staining), DU145; format: cell-based, human; conditions: Homo sapiens, DU-145, 96 h, tumour cell proliferation, 4 days incubation, read-out: Inhibition IC50 [M] (DU145)

- Molecule: "CCn1c(=O)c(=CNc2ccc3c(c2)c(C2CCN(C4CC4)CC2)cn3C)s/c1=C(/C#N)C(=O)NCC(F)(F)F"
  IC50: "2.3e-07 M"
- Molecule: "CCN1CCCC1Cn1ccc2ccc(NC=c3sc(=C(C#N)C(=O)NCC(F)(F)F)n(CC)c3=O)cc21 (stereo not shown)"
  IC50: "3.2e-07 M"
- Molecule: "CCn1c(=C(C#N)C(=O)NCC#N)sc(=CNc2ccc3cn(C4CCN(C(C)C)CC4)nc3c2)c1=O"
  IC50: "2.8e-07 M"
- Molecule: "CCn1c(=O)c(=CNc2ccc3ccn(C4CCN(C)CC4)c3c2)s/c1=C(/C#N)C(=O)NC(c1ccco1)C(F)(F)F (stereo not shown)"
  IC50: "2.1e-07 M"
- Molecule: "CCn1c(=O)c(=CNc2ccc3ncn(C4CCN(C)CC4)c3c2)s/c1=C(/C#N)C(=O)NCC(F)(F)F"
  IC50: "1.3e-07 M"
- Molecule: "CCn1c(=O)c(=CNc2ccc3c(Cl)cn(C4CCN(C)CC4)c3c2)s/c1=C(/C#N)C(=O)NCC#N"
  IC50: "1.4e-07 M"
- Molecule: "CCn1c(=C(C#N)C(=O)NCC#N)sc(=CNc2ccc3cnn(C4CCN(C(C)C)CC4)c3c2)c1=O"
  IC50: "1.1e-07 M"

###

molecular target: PLK-1 (Homo sapiens, UniProt P53350); construct: Fusionsprotein bestehend aus GST und Plk (Kinase Domäne 33-345; MW 36 kDa, conc 0,8 µg/µl); GST; made in house; host or cells: Hi5 insect cells; test: PLK-1 enzyme assay at 10 mM ATP (indirect HTRF assay); assay type: biochemical; details: read-out: Inhibition PLK-1 IC50 [M] (10 mM ATP)
Sequence (P53350 33-345): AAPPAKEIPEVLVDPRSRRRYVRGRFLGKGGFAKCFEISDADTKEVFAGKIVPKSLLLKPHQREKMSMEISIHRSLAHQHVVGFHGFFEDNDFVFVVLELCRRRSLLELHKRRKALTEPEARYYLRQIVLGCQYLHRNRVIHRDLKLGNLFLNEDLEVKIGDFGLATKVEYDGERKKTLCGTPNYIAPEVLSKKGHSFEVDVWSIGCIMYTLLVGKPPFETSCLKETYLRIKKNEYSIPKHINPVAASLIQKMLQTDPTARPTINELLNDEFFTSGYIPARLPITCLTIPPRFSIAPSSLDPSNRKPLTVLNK
# Lookup of reported log10 of IC50 keyed by entry
Property: log10 of IC50 (log10 of the value in M)

- Molecule: "CCn1c(=C(C#N)C(=O)NCC(F)(F)F)sc(=CNc2ccc3ccn(CC(=O)N(C)C)c3c2)c1=O"
  log10 of IC50: -7.31
- Molecule: "CCCN1CCC(c2cn(CC)c3ccc(NC=c4sc(=C(C#N)C(=O)NCC#N)n(CC)c4=O)cc23)CC1"
  log10 of IC50: -8.46
- Molecule: "CCn1c(=O)c(=CNc2ccc3ccn(C4CCN(C)CC4)c3c2)s/c1=C(/C#N)C(=O)NCC(F)(F)F"
  log10 of IC50: -8.80
- Molecule: "CCn1c(=O)c(=CNc2ccc3ccn(C4CCN(C)CC4)c3c2)s/c1=C(/C#N)C(=O)NC(c1ccco1)C(F)(F)F (centres unmarked)"
  log10 of IC50: -7.21
- Molecule: "CCn1c(=C(C#N)C(=O)NCC(F)(F)F)sc(=CNc2ccc3c(c2)c(CCN(C)C)cn3C)c1=O"
  log10 of IC50: -8.21
- Molecule: "CCn1c(=O)c(=CNc2ccc3c(C(=O)C(C)(C)C)cn(C4CCN(C)CC4)c3c2)s/c1=C(/C#N)C(=O)NCC#N"
  log10 of IC50: -8.38
- Molecule: "CCn1c(=C(C#N)C(=O)NCC#N)sc(=CNc2ccc3cn(C4CCN(C(C)C)CC4)nc3c2)c1=O"
  log10 of IC50: -7.66
- Molecule: "CCn1c(=O)c(=CNc2ccc3c(c2)c(C2CCN(C)CC2)cn3C)s/c1=C(/C#N)C(=O)NCC(F)(F)F"
  log10 of IC50: -8.68
- Molecule: "CCn1c(=O)c(=CNc2ccc3c(c2)c(C2CCN(C4CC4)CC2)cn3C)s/c1=C(/C#N)C(=O)NCC(F)(F)F"
  log10 of IC50: -7.92
- Molecule: "CCn1c(=O)c(=CNc2ccc3c(C4CCN(C)CC4)cn(C)c3c2)s/c1=C(/C#N)C(=O)NCC#N"
  log10 of IC50: -9.00
- Molecule: "CCn1c(=O)c(=CNc2ccc3c(Cl)cn([C@H]4CC[C@H](N(C)C)CC4)c3c2)s/c1=C(/C#N)C(=O)NCC#N"
  log10 of IC50: -8.89
- Molecule: "CCn1c(=C(C#N)C(=O)NCC(F)(F)F)sc(=CNc2ccc3ccn(CCN4CCCC4)c3c2)c1=O"
  log10 of IC50: -8.48
- Molecule: "CCn1c(=O)c(=CNc2ccc3c(Cl)cn(C4CCN(C)CC4)c3c2)s/c1=C(/C#N)C(=O)NCC#N"
  log10 of IC50: -9.00
- Molecule: "CCn1c(=C(C#N)C(=O)NCC(F)(F)F)sc(=CNc2ccc3ccn(C4CCN(CC(=O)OC)CC4)c3c2)c1=O"
  log10 of IC50: -8.41
- Molecule: "CCn1c(=O)c(=CNc2ccc3ccn(C4CC(C)(C)N(C)C(C)(C)C4)c3c2)s/c1=C(/C#N)C(=O)NCC#N"
  log10 of IC50: -8.43
- Molecule: "CCn1c(=O)c(=CNc2ccc3c(c2)c(CCN2CCCC2)cn3C)s/c1=C(/C#N)C(=O)NCC(F)(F)F"
  log10 of IC50: -8.23
- Molecule: "CCn1c(=C(C#N)C(=O)NCC(F)(F)F)sc(=CNc2ccc3ccn(C4CCOCC4)c3c2)c1=O"
  log10 of IC50: -7.43
- Molecule: "CCn1c(=O)c(=CNc2ccc3ncn(C4CCN(C)CC4)c3c2)s/c1=C(/C#N)C(=O)NCC(F)(F)F"
  log10 of IC50: -8.51
- Molecule: "CCn1c(=C(C#N)C(=O)NCC#N)sc(=CNc2ccc3c(c2)c(C2CCN(C4CC4)CC2)cn3C)c1=O"
  log10 of IC50: -8.89
- Molecule: "CCn1c(=O)c(=CNc2ccc3c(CN4CCCCC4)cn(C)c3c2)s/c1=C(/C#N)C(=O)NCC#N"
  log10 of IC50: -8.27
